- ASSAYED SYSTEM: PKC α (Homo sapiens, UniProt P17252)
- Construct: purchased CALBIOCHEM
- PROTOCOL SUMMARY: PKC enzyme assay (BIOTRAK Protein kinase C enzyme assay system, 32P-ATP phosphorylation of peptide […])
- Type: biochemical
- ASSAY SETUP: Protein Kinase C, Human Recombinant; test substance 1 nM-10 µM; 37°C, 15 minutes; read-out: Inhibition of PKC activity IC50 PKC α
VALUE TYPE: pIC50
In plain terms, pIC50 is the concentration in mol/L turned into minus its base-10 logarithm.

Could you tell me which pIC50 is on file for CN1CCCC(Cn2cc(C3=C(Nc4ccccc4)C(=O)NC3=O)c3ccccc32)C1 (stereo not drawn) ?
5.58

Okay, and `O=C1NC(=O)C(c2cn(CCCn3ccnc3)c3ccccc23)=C1Nc1cccc(Cl)c1` ?
6.45

Input `O=C1NC(=O)C(c2cn(CCCN3CCN(CCO)CC3)c3ccccc23)=C1Nc1ccccc1`
5.97

And the next one, `O=C1NC(=O)C(c2cn(CCCN3CCOCC3)c3ccccc23)=C1Nc1ccccc1` ?
5.91

Moving on to `CN(C)CCN(C)CCCn1cc(C2=C(Nc3ccccc3)C(=O)NC2=O)c2ccccc21`
5.55

Please give the result for `CCN(C)CCCn1c(C)c(C2=C(Nc3ccccc3)C(=O)NC2=O)c2ccccc21` too.
5.26

Next entry: `CN1CCN(CCCCn2cc(C3=C(Nc4ccccc4)C(=O)NC3=O)c3ccccc32)CC1`
5.73

And `O=C1NC(=O)C(c2cn(CCCCn3ccnc3)c3ccccc23)=C1Nc1cccc(Cl)c1` ?
6.11

// same read-out, input: `O=C1NC(=O)C(c2cn(CCCN3CCC(Cc4ccccc4)CC3)c3ccccc23)=C1Nc1ccccc1`
5.86

Also check `O=C1NC(=O)C(c2cn(CCCn3ccnc3)c3ccccc23)=C1Nc1ccc(Cl)cc1`
6.13

Ok, now `O=C1NC(=O)C(c2cn(CCCO)c3ccccc23)=C1Nc1ccccc1`
5.79

Also need `Cc1nccn1CCn1cc(C2=C(Nc3ccccc3)C(=O)NC2=O)c2ccccc21` , thanks.
5.15

Try this molecule too: `O=C1NC(=O)C(c2cn(CC3CCNCC3)c3ccccc23)=C1Nc1ccccc1`
6.53

Same read-out for `O=C1NC(=O)C(c2cn(CCCN3CCC(O)CC3)c3ccccc23)=C1Nc1ccccc1` ?
6.38

###

- ASSAYED SYSTEM: PKC β II (Homo sapiens)
- Construct: purchased CALBIOCHEM
- Sequence (P05771 other isoform, or with tags, fused parts or gaps): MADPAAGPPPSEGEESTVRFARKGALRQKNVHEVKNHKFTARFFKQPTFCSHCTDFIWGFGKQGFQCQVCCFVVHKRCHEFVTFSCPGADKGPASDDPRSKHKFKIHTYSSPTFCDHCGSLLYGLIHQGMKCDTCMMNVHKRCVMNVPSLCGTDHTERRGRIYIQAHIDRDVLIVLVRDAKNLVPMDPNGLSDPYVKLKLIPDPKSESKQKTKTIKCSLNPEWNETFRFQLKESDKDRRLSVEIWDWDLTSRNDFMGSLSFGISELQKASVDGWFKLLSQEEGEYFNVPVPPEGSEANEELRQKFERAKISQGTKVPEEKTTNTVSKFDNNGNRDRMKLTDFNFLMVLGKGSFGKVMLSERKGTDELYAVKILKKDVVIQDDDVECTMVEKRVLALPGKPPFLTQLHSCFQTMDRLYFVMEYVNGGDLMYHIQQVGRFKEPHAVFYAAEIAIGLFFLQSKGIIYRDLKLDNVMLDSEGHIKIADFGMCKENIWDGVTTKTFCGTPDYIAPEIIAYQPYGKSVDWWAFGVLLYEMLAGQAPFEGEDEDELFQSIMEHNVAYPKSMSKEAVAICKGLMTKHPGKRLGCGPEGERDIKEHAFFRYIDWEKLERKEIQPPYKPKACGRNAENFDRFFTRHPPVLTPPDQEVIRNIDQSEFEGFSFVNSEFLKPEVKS
- PROTOCOL SUMMARY: PKC enzyme assay (BIOTRAK Protein kinase C enzyme assay system, 32P-ATP phosphorylation of peptide […])
- Format: biochemical
- ASSAY SETUP: IC50 PKC α / IC50 PKC β II
Task for the reader: assign each of the following compounds its reported Ratio α/β.
Field format: numeric only.

Item O=C1NC(=O)C(c2cn(CC3CCN(CC(O)CO)CC3)c3ccccc23)=C1Nc1ccccc1 (centres unmarked) [Example 3-5] has what recorded Ratio α/β?
56

Consider next the compound CCN(C)C[C@@H]1CCc2c(C3=C(Nc4cccc(SC)c4)C(=O)NC3=O)c3ccccc3n2C1 [Example 4-48] in the same way.
74

Record: Cc1nccn1CCCn1cc(C2=C(Nc3cccc(Cl)c3)C(=O)NC2=O)c2ccccc21 [Example 2-42]
45

And for CN1CCCC(Cn2cc(C3=C(Nc4ccccc4)C(=O)NC3=O)c3ccccc32)C1 (centres unmarked) [Example 3-3] ?
47

What do we get for O=C1NC(=O)C(c2cn(CC3CCCNC3)c3ccccc23)=C1Nc1ccccc1 (centres unmarked) [Example 3-1] ?
27

Now the same for O=C1NC(=O)C(c2cn(CCCO)c3ccccc23)=C1Nc1cccc(Cl)c1 [Example 2-3]
85

Next entry: NC(=O)C1CCCN1CCCn1cc(C2=C(Nc3ccccc3)C(=O)NC2=O)c2ccccc21 (centres unmarked) [Example 2-24]
42

Another compound to check: COC[C@H]1Cc2c(C3=C(Nc4ccccc4)C(=O)NC3=O)c3ccccc3n2C1 [Example 4-56]
131

Repeat with O=C1NC(=O)C(c2cn(CCCO)c3ccccc23)=C1Nc1ccc(Cl)c(Cl)c1 [Example 2-6]
55

Here is the next compound: CC(C)(C)OC(=O)C1CCN(CCCn2cc(C3=C(Nc4ccccc4)C(=O)NC3=O)c3ccccc32)CC1 [Example 2-51]
38

Try O=C1NC(=O)C(c2c3n(c4ccccc24)C[C@@H](CO)C=C3)=C1Nc1ccccc1 [Example 4-53] next.
106

// query: Cc1nccn1CCCn1cc(C2=C(Nc3ccccc3)C(=O)NC2=O)c2ccccc21 [Example 2-61]
45

Also need CCN(C)C[C@H]1Cc2c(C3=C(Nc4ccc(OC)cc4)C(=O)NC3=O)c3ccccc3n2C1 [Example 4-63] , thanks.
69

Also, O=C1NC(=O)C(c2cn(CCn3ccnc3)c3ccccc23)=C1Nc1ccccc1 [Example 2-62] please.
55

What about this compound? CN(C)CCCn1cc(C2=C(Nc3cccc(Cl)c3)C(=O)NC2=O)c2ccccc21 [Example 2-12]
56

Repeat with O=C1NC(=O)C(c2cn(CCCN3CCC(N4CCCCC4)CC3)c3ccccc23)=C1Nc1ccccc1 [Example 2-31]
59

Entry to check: O=C1NC(=O)C(c2c[nH]c3ccccc23)=C1Nc1cccc(Cl)c1 [Example 1-6]
35

What about O=C1NC(=O)C(c2cn(CCN3CCC(O)CC3)c3ccccc23)=C1Nc1ccccc1 [Example 2-47] ?
36

Would you kindly repeat that for O=C1NC(=O)C(c2c3n(c4ccccc24)C[C@@H](CO)C3)=C1Nc1ccccc1 [Example 4-60] ?
115

Lookup Cl.N=C(N)N1CCC(Cn2cc(C3=C(Nc4ccccc4)C(=O)NC3=O)c3ccccc32)CC1 [Example 3-7]
46
